target desc: T1, His-tagged cynomolgus TIGIT (cynomolgus, UniProt A0A7N9I9V4 89-209)
T1 construct: SPR analyte; also called cynomolgus TIGIT protein; not shown: His tag
T1 sequence (A0A7N9I9V4 entry or part of it): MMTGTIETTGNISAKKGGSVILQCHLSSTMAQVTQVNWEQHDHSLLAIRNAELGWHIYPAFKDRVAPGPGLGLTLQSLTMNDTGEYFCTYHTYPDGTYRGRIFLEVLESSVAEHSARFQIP
assay remarks: SPR (Biacore T200), antibody captured, His-tagged TIGIT analyte
The reader will find reported koff values listed item by item below.
Lab book: enter the figure in s⁻¹, no units written.

Past entries and their recorded results:
| binder | meas value |
| --- | --- |
| TIGIT-94 chimeric antibody (antibody, human IgG1, kappa, V domains shown, Full-length chimeric IgG1 kappa) VH: EVKLVESGGGLVKPGGSLKLSCAASGFTFSTYTMSWVRQTPEKRLEWVATISSGGTYTHYPDSVKGRFTISRDNAKNTLYLQMSSLKSEDTAMYYCTRWFLSLYAMDYWGQGTSVTVSS VL: DIVMTQSTSSLSASLGDRVTISCRASQDINNFLNWYQQKPAGTVDLLIYYTSRLHSGVPSRFSGSGSGTDYSLTISNLDQEDIATYFCQQGNTFPYTFGGGTRLEIKR | 0.0075 |
| TIGIT-52 chimeric antibody (antibody, human IgG1, kappa, V domains shown, Full-length chimeric IgG1 kappa) VH: EVQLVESGGGLVEPGGSLTLSCVASGFTFSSFAMSWVRQTPEKRLEWVATISNGGSYTYYPDTVKGRFTISRDNAKNTLFLQMSSLRSEDTAMYYCARPYYGTTYGYYFDFWGQGTTLTVSS VL: QIVLTQSPASLAVSLGQRATISCRASESVDRNGNSFMHWYQQKPGQPPKLLIYLASNLESGVPARFSGSGSRTDFTLTIDPVEADDAATYYCQQNNEDPLTFGAGTKLELKR | 6.1e-05 |
| TIGIT-18 chimeric antibody (antibody, human IgG1, kappa, V domains shown, Full-length chimeric IgG1 kappa) VH: QVQLQQPGAELVRPGASVKLSCKASGYSFTSYWMNWVKQRPGQGHEWIGMIHLSNSETRLNQNFLDKATLTVDKSSSTVYLQLSSPTSEDSAVYYCARERDYYGSSYFDYWGQGTTLTVSS VL: DIVMTQSPASLVVSLGQRATISCRTSQSVSTSSYSYMHWYQQKPGQPPKLLIKNASNLESGVPARFSASGSGTDFTLNIHPVEEEDAATYYCQHSWEIPRTFGGGTKLEIKR | 0.0011 |
| TIGIT-19 chimeric antibody (antibody, human IgG1, kappa, V domains shown, also called 19VH + 19VL) VH: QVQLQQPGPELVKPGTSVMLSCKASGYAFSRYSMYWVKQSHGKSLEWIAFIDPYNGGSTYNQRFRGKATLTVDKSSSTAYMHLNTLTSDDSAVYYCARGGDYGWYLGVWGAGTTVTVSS VL: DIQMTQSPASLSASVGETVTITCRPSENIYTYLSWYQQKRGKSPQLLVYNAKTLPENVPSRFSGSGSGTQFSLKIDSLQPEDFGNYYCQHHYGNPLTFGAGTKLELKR | 6.6e-05 |

Exercise: Consider the binder Hu1217-2-2 (anti-TIGIT positive control antibody) (antibody, V domains shown) VH: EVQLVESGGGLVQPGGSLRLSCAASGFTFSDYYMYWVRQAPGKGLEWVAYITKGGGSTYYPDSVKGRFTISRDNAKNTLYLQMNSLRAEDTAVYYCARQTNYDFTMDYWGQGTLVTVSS VL: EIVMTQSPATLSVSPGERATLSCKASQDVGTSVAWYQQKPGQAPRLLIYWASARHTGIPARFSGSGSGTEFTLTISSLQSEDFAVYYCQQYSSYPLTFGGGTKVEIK and give its measured koff.
Solution: 0.044
